The measurements presented in this section are drawn from paper PMC1636342.

tested target: Bs-CspB G35P (Bacillus subtilis, UniProt P32081 1-67, G35P)
procedure details: tryptophan fluorescence quenching
value kind: Kd (µM)

TTTTTTT (ssDNA) [dT7] ... 0.118
